# maps each entry to its KIDNEY_R
Species on record: Rattus norvegicus
Experiment: Open TG-GATES - Regimen: Single
Type: toxicity, organism-based, Sprague-Dawley
Parameters: regimen Single, gender Male, age 6 weeks
Conditions: in vivo, po, 300 mg/kg, 6 h, tissue Kidney, route gavage, dose level Middle
Reported Metric: KIDNEY_R (g)

[
  {
    "Mol Smiles": "CN/C(=N/CCSCc1nc[nH]c1C)NC#N",
    "Reported Metric": "KIDNEY_R",
    "Observed": 1
  },
  {
    "Mol Smiles": "O=C(OC[C@H]1O[C@@H](OC(=O)c2cc(O)c(O)c(OC(=O)c3cc(O)c(O)c(O)c3)c2)[C@H](OC(=O)c2cc(O)c(O)c(OC(=O)c3cc(O)c(O)c(O)c3)c2)[C@@H](OC(=O)c2cc(O)c(O)c(OC(=O)c3cc(O)c(O)c(O)c3)c2)[C@@H]1OC(=O)c1cc(O)c(O)c(OC(=O)c2cc(O)c(O)c(O)c2)c1)c1cc(O)c(O)c(OC(=O)c2cc(O)c(O)c(O)c2)c1",
    "Reported Metric": "KIDNEY_R",
    "Observed": 0.9
  },
  {
    "Mol Smiles": "CNC(=C[N+](=O)[O-])NCCSCc1ccc(CN(C)C)o1",
    "Reported Metric": "KIDNEY_R",
    "Observed": 1
  },
  {
    "Mol Smiles": "Cc1nnc2n1-c1ccc(Cl)cc1C(c1ccccc1Cl)=NC2",
    "Reported Metric": "KIDNEY_R",
    "Observed": 0.9
  },
  {
    "Mol Smiles": "COC(=O)C1=C(C)NC(C)=C(C(=O)OC)C1c1ccccc1[N+](=O)[O-]",
    "Reported Metric": "KIDNEY_R",
    "Observed": 0.9
  }
]
